- tgt: Neutrophil elastase (Homo sapiens, UniProt P08246)
- Sequence (P08246 whole entry): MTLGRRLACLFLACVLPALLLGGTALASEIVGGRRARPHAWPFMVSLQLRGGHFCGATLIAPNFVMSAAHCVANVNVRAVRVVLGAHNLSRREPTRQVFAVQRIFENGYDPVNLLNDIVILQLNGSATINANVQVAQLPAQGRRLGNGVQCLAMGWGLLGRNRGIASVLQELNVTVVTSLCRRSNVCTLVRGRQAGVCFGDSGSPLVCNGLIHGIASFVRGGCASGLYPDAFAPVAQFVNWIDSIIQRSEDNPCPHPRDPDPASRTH
- measurement.notes: Inhibition of Human Neutrophil Elastase-catalyzed hydrolysis of the synthetic substrate MeO-Suc-Ala-Ala-Pro-Val-p- nitroanilide.
pKi: −log10 of the molar value.
Class criterion met: pKi at least 8. Class criterion not met: pKi below 8.

# count of solved cases: 3
- compound: "CC(C)C(NC(=O)Cn1ccc2c(=O)n(CCN3CCOCC3)c(=O)[nH]c2c1=O)C(=O)C(F)(F)F (stereo unspecified)"
  tgt: "Neutrophil elastase (Homo sapiens, UniProt P08246)"
  group.label: "criterion not met"
- compound: "CC(C)C(NC(=O)Cn1ccc2c(=O)[nH]c(=O)[nH]c2c1=O)C(=O)C(F)(F)F (stereo unspecified)"
  tgt: "Neutrophil elastase (Homo sapiens, UniProt P08246)"
  group.label: "criterion not met"
- compound: "CC(C)[C@@H](NC(=O)Cn1c(-c2ccccc2)cc2c(=O)n(CC(=O)OCc3ccccc3)c(=O)[nH]c2c1=O)C(=O)C(F)(F)F"
  tgt: "Neutrophil elastase (Homo sapiens, UniProt P08246)"
  group.label: "criterion met"

# bool: pKi of CC(C)C(NC(=O)Cn1ccc2c(=O)n(C)c(=O)[nH]c2c1=O)C(=O)C(F)(F)F (stereo unspecified) >= 8 criterion not met
